T/C values, listed per item
# Test system: L1210 leukemia ip in BDF1 mice, survival T/C
# Method summary: NCI In Vivo Anticancer Drug Screen. Data for tumor model L1210 Leukemia (intraperitoneal) in B6D2F1 (BDF1) mice
# Conditions: endpoint: mean survival time; dose: 200.0 mg/kg/injection; schedule: Q01DX009 (ip); vehicle: saline with Tween-80; higher = longer survival
Inconclusive results and toxic doses are left out.

# Smiles notation, Experimental system, T/C
measured = [
    ("Cc1c(Cl)cccc1NC(=O)COc1ccc(Cl)cc1Cl", "L1210 leukemia ip in BDF1 mice, survival T/C", "93 % of control"),
    ("O=C(O)c1cccc([N+](=O)[O-])c1C(=O)O", "L1210 leukemia ip in BDF1 mice, survival T/C", "95 % of control"),
    ("CC(=O)N(C)c1ccc(NC(=O)Cc2ccccc2)cc1", "L1210 leukemia ip in BDF1 mice, survival T/C", "102 % of control"),
    ("Cc1cc(C(=O)CCl)c(CN2C(=O)c3ccccc3C2=O)c(=O)n1C", "L1210 leukemia ip in BDF1 mice, survival T/C", "100 % of control"),
    ("Cc1ccc(S(=O)(=O)/C=C(/I)c2ccccc2)cc1", "L1210 leukemia ip in BDF1 mice, survival T/C", "100 % of control"),
    ("CC1=NN(c2cccc(Cl)c2)C(=O)C1", "L1210 leukemia ip in BDF1 mice, survival T/C", "106 % of control"),
]

* * *

# Tested on: L1210 leukemia ip in BDF1 mice, survival T/C
# Method summary: NCI In Vivo Anticancer Drug Screen. Data for tumor model L1210 Leukemia (intraperitoneal) in B6D2F1 (BDF1) mice
# Conditions: endpoint: mean survival time; dose: 200.0 mg/kg/injection; schedule: Q04DX003 (ip); vehicle: saline; higher = longer survival
Inconclusive results and toxic doses are left out.

# Compound, Experimental system, T/C
measured = [
    ("Nc1n[nH]c(N)n1.[Pt]", "L1210 leukemia ip in BDF1 mice, survival T/C", "100 % of control"),
    ("CCN(C)CCN(C)CC", "L1210 leukemia ip in BDF1 mice, survival T/C", "99 % of control"),
    ("CC(=O)OCC(=O)[C@@]1(O)CC[C@H]2[C@@H]3C[C@H](C)C4=CC(=O)C=C[C@]4(C)[C@@]3(F)[C@@H](O)C[C@@]21C", "L1210 leukemia ip in BDF1 mice, survival T/C", "111 % of control"),
    ("Cc1cc(C)[nH]c(=O)n1", "L1210 leukemia ip in BDF1 mice, survival T/C", "94 % of control"),
    ("O=S(=O)([O-])CC[n+]1ccc(-c2ccccc2)o1", "L1210 leukemia ip in BDF1 mice, survival T/C", "103 % of control"),
    ("CCC1(C)NC(C(=O)O)CS1 (centres undefined)", "L1210 leukemia ip in BDF1 mice, survival T/C", "107 % of control"),
    ("CCOC(=O)C1=C(C)CC(=O)NC1=O", "L1210 leukemia ip in BDF1 mice, survival T/C", "90 % of control"),
    ("Cn1nnnc1/N=C/c1ccccc1", "L1210 leukemia ip in BDF1 mice, survival T/C", "94 % of control"),
    ("CCCCSCC(N)CO (centres undefined)", "L1210 leukemia ip in BDF1 mice, survival T/C", "101 % of control"),
    ("CC(=O)[C@@]1(O)CC[C@H]2[C@@H]3C[C@H](C)C4=CC(=O)CC[C@]4(C)[C@H]3[C@@H](O)C[C@@]21C", "L1210 leukemia ip in BDF1 mice, survival T/C", "102 % of control"),
    ("CC([NH-])C(=O)O.O=C(O)CN(CC(=O)O)CC(=O)O.[Co+2]", "L1210 leukemia ip in BDF1 mice, survival T/C", "106 % of control"),
    ("CCN(CC)Cc1c(C)[nH]c2ccc(N(C)C)cc2c1=O", "L1210 leukemia ip in BDF1 mice, survival T/C", "109 % of control"),
    ("O=C(O)C1CCSS1 (centres undefined)", "L1210 leukemia ip in BDF1 mice, survival T/C", "104 % of control"),
    ("Nc1[nH]c(=S)[nH]c(=O)c1NC(=O)C1CC1", "L1210 leukemia ip in BDF1 mice, survival T/C", "105 % of control"),
]
